target of assay: T1, recombinant human CD3 epsilon/delta heterodimer (human, UniProt P07766 23-126; P04234 22-105)
T1 construct: Recombinant protein in solution (200-50 nM) in the Octet assay; also called hCD3 E/D; human CD3E/D
T1 sequence (P07766 23-126, stated change not applied, chain 1 of 2): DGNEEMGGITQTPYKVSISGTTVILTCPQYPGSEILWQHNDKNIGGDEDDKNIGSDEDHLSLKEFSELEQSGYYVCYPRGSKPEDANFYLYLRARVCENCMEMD
T1 sequence (P04234 22-105, stated change not applied, chain 2 of 2): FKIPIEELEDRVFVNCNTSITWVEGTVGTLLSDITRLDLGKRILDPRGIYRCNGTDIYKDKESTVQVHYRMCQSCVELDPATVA
assay: Octet BLI, mAb on FAB2G sensor, hCD3 E/D 200-50 nM; R^2 0.99
recorded endpoint: pKd
Schema: pKd number; meaning minus log10 of the concentration expressed in molar units.

# annotated cases, reported pKd shown
ABL-CD3-24 (antibody, V domains shown, Chimeric hybridoma mAb: human V, CH1, upper hinge; mouse middle hinge, CH2, CH3) VH: EVQLVESGGGLVKPGGSLRLSCVASGFTFSSYTMNWVRQAPGKGLEWVSSISRSGSYKYNADSVKGRFTISRDNAKNSLYLQMNSLRVEDTAVYYCAREPPTLGMDYWGQGTLVTVSS VL: NFMLTQPHSVSESPGKTVTISCTRSSGSIASNYVQWYQQRPGSSPTTVIYEDNQRPSGVPDRFSGSIDSSSNSASLTISGLKTEDEADYYCQSFYSSNRVFGGGTELTVL :: 8.24
ABL-CD3-15 (antibody, V domains shown, Chimeric hybridoma mAb: human V, CH1, upper hinge; mouse middle hinge, CH2, CH3) VH: EVQLVESGGGLVKPGGSLRLSCAASGFNCSSYSMNWVRQAPGKGLEWVSSISRSSNYIYYADSVKGRFSISRDDAKNSLYLQMNSLRAEDTAVYYCARERWIQLYSDYWGQGILVTVSS VL: NFMLTQPHSVSESPGKTVTISCTRSSGSIASNYVQWYQQRPGSSPTTVIYEDNQRPSGVPDRFSGSIDSSSNSASLTISGLKTEDEADYYCQSYDSSNRVFGGGTKLTVL :: 8.79

Let us examine a further case.
Query: Any idea what its pKd is? The binder is ABL-CD3-20 (antibody, V domains shown, Chimeric hybridoma mAb: human V, CH1, upper hinge; mouse middle hinge, CH2, CH3) VH: EVQLVESGGGLVKPGGSLRLSCAASGLTFSTYSMNWVRQAPGKGLEWVSSISSSGSYVYYADSVKGRFTMSRDNAKNSLYLQMNSLRAEDTAVYYCARERRELLFDYWGQGTLVTVSS VL: NFMLTQPHSVSESPGKTVTISCTRSSGSIASNYVQWYQQRPGSSPTSVIYEDNQRPSGVPDRFSGSIDSSSNSASLTISGLKTEDEADYYCQSYDRSNRVFGGGTKLTVL
Response: 7.98
